src = patent US11339383B2

# EXPERIMENT_NOTES: Thermostability of GDP-bound mini G proteins by differential scanning fluorimetry (DSF)
# Type: physicochemical
# CONDITION_DETAILS: 1 mM GDP, SYPRO-orange, no receptor
# Protocol: SYPRO-orange (15 μl) was added from a 20× stock solution to give a final concentration of 2×. Samples were mixed and 2×50 μl aliquots (duplicates) were transferred to 0.2 ml PCR tubes (Qiagen). Thermostability measurements were performed using a Rotor-Gene Q (Qiagen). […] Tm values were calculated as the mean±SEM from three independent experiments. For constructs see FIGS. 29 and 35-37. […] The stability of mini-G proteins was also determined in detergent using native DSF (NanoTemper Prometheus). […]
QUANTITY: Mini Gs basal Tm (GDP-bound state, DSF)

Please give Mini Gs basal Tm (GDP-bound state, DSF) for each item listed below.
1. Mini Gs199: mini Gs, Gly8 linker, switch III deleted, G49D E50N A249D S252D L272D (protein, MINI GS199, mini Gs, Gly8 linker, switch III deleted, G49D E50N A249D S252D L272D) MGHHHHHHANKKIEKQLQKDKQVYRATHRLLLLGADNSGKSTIVKQMRILHGGGGGGGGTSGIFETKFQVDKVNFHMFDVGGQRDERRKWIQCFNDVTAIIFVVDSSDYNRLQEALNDFKSIWNNRWLRTISVILFLNKQDLLAEKVLAGKSKIEDYFPEFARYTTPEDATPEPGEDPRVTRAKYFIRDEFLRISTASGDGRHYCYPHFTCAVDTENIRRVFNDCRDIIQRMHLRQYELL
2. Mini Gs254: mini Gs199 with M60A (protein, MINI GS254, mini Gs199 with M60A) MGHHHHHHANKKIEKQLQKDKQVYRATHRLLLLGADNSGKSTIVKQARILHGGGGGGGGTSGIFETKFQVDKVNFHMFDVGGQRDERRKWIQCFNDVTAIIFVVDSSDYNRLQEALNDFKSIWNNRWLRTISVILFLNKQDLLAEKVLAGKSKIEDYFPEFARYTTPEDATPEPGEDPRVTRAKYFIRDEFLRISTASGDGRHYCYPHFTCAVDTENIRRVFNDCRDIIQRMHLRQYELL
3. Mini GS303: mini Gs199 with V375I (protein, MINI GS303, mini Gs199 with V375I) MGHHHHHHANKKIEKQLQKDKQVYRATHRLLLLGADNSGKSTIVKQMRILHGGGGGGGGTSGIFETKFQVDKVNFHMFDVGGQRDERRKWIQCFNDVTAIIFVVDSSDYNRLQEALNDFKSIWNNRWLRTISVILFLNKQDLLAEKVLAGKSKIEDYFPEFARYTTPEDATPEPGEDPRVTRAKYFIRDEFLRISTASGDGRHYCYPHFTCAVDTENIRRIFNDCRDIIQRMHLRQYELL
4. Mini Gs162: mini Gs161 with A249D (protein, MINI GS162, mini Gs161 with A249D) MGHHHHHHANKKIEKQLQKDKQVYRATHRLLLLGAGESGKSTIVKQMRILHGGGGGETKFQVDKVNFHMFDVGGQRDERRKWIQCFNDVTAIIFVVDSSSYNMVIREDNQTNRLQEALNLFKSIWNNRWLRTISVILFLNKQDLLAEKVLAGKSKIEDYFPEFARYTTPEDATPEPGEDPRVTRAKYFIRDEFLRISTASGDGRHYCYPHFTCAVDTENIRRVFNDCRDIIQRMHLRQYELL

## Result
1: 72.5 ± 0.0 (n = 3) ° C.; 2: 70.3 ± 0.0 (n = 3) ° C.; 3: 70.3 ± 0.0 (n = 3) ° C.; 4: 60.6 ± 0.1 (n = 3) ° C.

Hi team, please reply with Mini Gs basal Tm (GDP-bound state, DSF) for each item in this list.
1. Mini Gs352: mini Gs199 with L63Y-I372A (protein, MINI GS352, mini Gs199 with L63Y-I372A) MGHHHHHHANKKIEKQLQKDKQVYRATHRLLLLGADNSGKSTIVKQMRIYHGGGGGGGGTSGIFETKFQVDKVNFHMFDVGGQRDERRKWIQCFNDVTAIIFVVDSSDYNRLQEALNDFKSIWNNRWLRTISVILFLNKQDLLAEKVLAGKSKIEDYFPEFARYTTPEDATPEPGEDPRVTRAKYFIRDEFLRISTASGDGRHYCYPHFTCAVDTENARRVFNDCRDIIQRMHLRQYELL
2. Mini Gs350: mini Gs199 with L63Y (protein, MINI GS350, mini Gs199 with L63Y) MGHHHHHHANKKIEKQLQKDKQVYRATHRLLLLGADNSGKSTIVKQMRIYHGGGGGGGGTSGIFETKFQVDKVNFHMFDVGGQRDERRKWIQCFNDVTAIIFVVDSSDYNRLQEALNDFKSIWNNRWLRTISVILFLNKQDLLAEKVLAGKSKIEDYFPEFARYTTPEDATPEPGEDPRVTRAKYFIRDEFLRISTASGDGRHYCYPHFTCAVDTENIRRVFNDCRDIIQRMHLRQYELL
3. Mini Gs345: mini Gs199 with I372A-V375I; detergent stabilised construct (protein, MINI GS345, mini Gs199 with I372A-V375I; detergent stabilised construct) MGHHHHHHANKKIEKQLQKDKQVYRATHRLLLLGADNSGKSTIVKQMRILHGGGGGGGGTSGIFETKFQVDKVNFHMFDVGGQRDERRKWIQCFNDVTAIIFVVDSSDYNRLQEALNDFKSIWNNRWLRTISVILFLNKQDLLAEKVLAGKSKIEDYFPEFARYTTPEDATPEPGEDPRVTRAKYFIRDEFLRISTASGDGRHYCYPHFTCAVDTENARRIFNDCRDIIQRMHLRQYELL
4. Mini Gs165: A249D-S252D-SIII (protein, MINI GS165, A249D-S252D-SIII) MGHHHHHHANKKIEKQLQKDKQVYRATHRLLLLGAGESGKSTIVKQMRILHGGGGGETKFQVDKVNFHMFDVGGQRDERRKWIQCFNDVTAIIFVVDSSDYNRLQEALNLFKSIWNNRWLRTISVILFLNKQDLLAEKVLAGKSKIEDYFPEFARYTTPEDATPEPGEDPRVTRAKYFIRDEFLRISTASGDGRHYCYPHFTCAVDTENIRRVFNDCRDIIQRMHLRQYELL
5. Mini Gs164: A249D and switch III deletion (protein, MINI GS164, A249D and switch III deletion) MGHHHHHHANKKIEKQLQKDKQVYRATHRLLLLGAGESGKSTIVKQMRILHGGGGGETKFQVDKVNFHMFDVGGQRDERRKWIQCFNDVTAIIFVVDSSSYNRLQEALNLFKSIWNNRWLRTISVILFLNKQDLLAEKVLAGKSKIEDYFPEFARYTTPEDATPEPGEDPRVTRAKYFIRDEFLRISTASGDGRHYCYPHFTCAVDTENIRRVFNDCRDIIQRMHLRQYELL

## Result
1. 64.7 ± 0.1 (n = 3) ° C.
2. 70.7 ± 0.0 (n = 3) ° C.
3. 65.4 ± 0.1 (n = 3) ° C.
4. 68.7 ± 0.0 (n = 3) ° C.
5. 66.5 ± 0.0 (n = 3) ° C.
